- assayed system: SARS-CoV-2 spike receptor-binding domain (RBD) (SARS-CoV-2, UniProt P0DTC2 319-541)
- assay: indirect ELISA on coated RBD ('ELISA affinity')
property: IC50
Dear colleague, please send the value followed by its unit.

Any idea what its IC50 is? The binder is Nb99 (VHH) VHH: QVQLVESGGGLVQTGGSLRLSCAASGSTRSIWYSGWYRQAPGKQRELVASLTSGGTTYYPDSMKGRFTISGSSGLNMVYLQMNSLRPEDTAVYSCNVRTGSGVYWGQGTQVTVSS
0.35 nM

Follow-up entry: Nb91 (VHH) VHH: HVQLVESGGGLVQPGGSLRLSCAASGLTLNDYAIGWFRQAPGKEREGVSCISSSDGTTYYADSVKGRFTISRDNAKNTVYLQMNSLKPEDTAVYYCATDIAPFYCSWPLRTRLVEYWGQGTQVTVSS
1.28 nM

Follow-up entry: Nb74 (VHH) VHH: HVQLVESGGGLVQAGGSLRLSCAASGRTFSSHAMAWFRQAPGKEREFVAGISWSGPYYVDSVKGRFTISTDNAKNTVYLQMNSLTPEDTAVYYCASSRGPNLYPHIGDVEYWGQGTQVTVSS
67.1 nM

Follow-up entry: Nb89 (VHH) VHH: HVQLVESGGGLVQAGGSLRLSCAASGGTFTTFRMAWFRQTPGKEREFVAASSWGFVNYADPVKGRFTISRDNAKNTVYLEMSSLKTEDTAVYYCAARNPGTGQYDYWGQGTQVTVSS
1.09 nM

Follow-up entry: Nb39 (VHH) VHH: QVQLVESGGGLVQAGGSLRLSCAASGRTFRFSAIDWYRQAPGQQREFVASISTSGRISYGHFVKGRFTISRDNAKNTMYLQMNSLKPEDTAVYYCHLAQPDVFGGGDYWGQGTQVTVSS
1.49 nM

Follow-up entry: Nb82 (VHH) VHH: DVQLVESGGGLVQAGGSLGLSCAASGSIFRLTAMGWYRQAPGKQRDLVTTITSAGIPHYADSVKGRFTISRDNAKNTVYLQMNGLKPEDTAVYYCYANTLNSQLLPRAYWGQGTQVTVSS
0.86 nM

Follow-up entry: Nb2 (VHH) VHH: QVQLVESGGGLVQAGGSLRLSCAASGRTFSIYNMGWFRQAPGKEREFVIHMNWSNGNTATAASVKDRFTISRDNAKNTVYLQMSSLKPEDTAVYYCHATTNDYDYWGQGTQVTVSS
4.82 nM

Follow-up entry: Nb83 (VHH) VHH: HVQLVESGGGLVQPGGSLRLSCAASGRSFNSYLMGWFRQAPGKEREFVAWISGSPHDIIRYRDSVKDRFTISRDNAKNTVYLQMNSLKPVDTAVYYCAVGSLRVGSFSPDYWGQGTQVTVSS
1.51 nM
